MEASUREMENT_TARGET: GCase (Homo sapiens)
Construct: endogenous in cells; host or cells: HeLa cells
ASSAY_DETAILS: activation of GCase in a live cell PFB assay in HELA cells
Assay type: cell-based
EXPERIMENTAL_CONTEXT: activation of GCase, EC50 ranges
pEC50: −log10 of the molar value.
READOUT: pEC50

// known answers, use as guide
SAMPLE_SMILES | READOUT | READOUT_VALUE
CCn1c(=O)n(CC(F)F)c2ncc(N3CCC4(CN(c5cc(C(F)(F)F)nc(C)n5)C4)C3)nc21 | pEC50 | 4.30 to 5.00
FC(F)(F)OCCn1ncc2ncc(N3CCC4(CN(c5ccnc(C(F)(F)F)c5)C4)C3)nc21 | pEC50 | > 5.00
FC(F)Cn1ncc2ncc(N3CC4(CCN(c5cnc(C(F)(F)F)cn5)CC4)C3)nc21 | pEC50 | > 5.00
Cc1nn(CC(F)F)c2nc(N3CCC4(CC3)CC(=O)N(c3cc(C(F)(F)F)ccn3)C4)ncc12 | pEC50 | > 5.00
CC(F)(F)Cn1ncc2ncc(N3CCC4(CN(c5ccnc(C(F)(F)F)c5)C4)C3)nc21 | pEC50 | 4.30 to 5.00

stdin: Item `Cc1nn(CC(F)F)c2nc(N3CCC4(CC3)CCN(c3cc(C(F)(F)F)ccn3)C4=O)ncc12` with GCase (Homo sapiens) - pEC50?
stdout: 4.30 to 5.00

stdin: # repeat for `CCn1c(-c2cncc(F)c2)nc2nc(N3CCC4(CN(c5ccnc(C(F)(F)F)c5)C4)C3)cnc21`
stdout: 4.00 to 4.30

stdin: Can you handle `Cc1nn(C2COC2)c2nc(N3CCC4(CC3)CN(c3cc(C(F)(F)F)ccn3)C4)cnc12` next?
stdout: 4.30 to 5.00

----------
MEASUREMENT_TARGET: GCase (Homo sapiens, UniProt P04062)
Construct: endogenous in cells; host or cells: HeLa cells
ASSAY_DETAILS: activation of GCase in a live cell PFB assay in HELA cells
Assay type: cell-based
EXPERIMENTAL_CONTEXT: activation of GCase, EC50 ranges
Method: Exemplary compounds were evaluated for activation of GCase in a live cell PFB assay in HELA cells (essentially as described in Ysselstein et al., “LRRK2 kinase activity regulates lysosomal glucocerebrosidase in neurons derived from Parkinson's disease patients” Nature Communications (2019) 10:5570). […] EC50 ranges: A: <10 μM; B: >10-50 μM; C: >50-100 μM; D: >100 μM.
READOUT: EC50

Use the examples below as a reference point.
COMPOUND | MEASUREMENT_TARGET | READOUT | READOUT_VALUE
CC(c1ccc(Cl)cn1)N1CC2(CCN(c3cnc4cnn(CC(F)F)c4n3)CC2)CC1=O (stereo not shown) | GCase (Homo sapiens, UniProt P04062) | EC50 | < 10 µM
Cc1nn(CC(F)F)c2nc(N3CCC4(CC3)CC(=O)N(c3ccnc(C(F)(F)F)n3)C4)ncc12 | GCase (Homo sapiens, UniProt P04062) | EC50 | < 10 µM
FC(F)(F)Cn1ncc2ncc(N3CCCC4(CC(Oc5cnccc5C(F)(F)F)C4)C3)nc21 (stereo not shown) | GCase (Homo sapiens, UniProt P04062) | EC50 | < 10 µM
O=C1N(c2ccc(C(F)(F)F)nc2)C(=O)C2(CCN(c3ncc4cnn(CC(F)F)c4n3)CC2)N1CC(F)F | GCase (Homo sapiens, UniProt P04062) | EC50 | < 10 µM
O=C(c1nc2ccccc2cc1C1CC1)N1CCC2(CC1)CCN(c1cc(C(F)(F)F)ccn1)C2=O | GCase (Homo sapiens, UniProt P04062) | EC50 | 10 to 50 µM

stdin: Given `O=C1CC2(CCN(c3ncc4cnn(CC(F)F)c4n3)CC2)CN1c1cnc(C(F)(F)F)nc1` , state its recorded EC50.
stdout: < 10 µM

stdin: Next entry: `O=C1N(c2cc(C(F)(F)F)ccn2)CCC12CCN(c1cncc(OCC(F)(F)F)n1)CC2`
stdout: 10 to 50 µM

stdin: Please answer likewise for `FC(F)(F)Cn1ncc2ncc(N3CCC4(CC3)CN(c3cc(C(F)(F)F)ccn3)C4)nc21`
stdout: < 10 µM

----------
MEASUREMENT_TARGET: GCase (Homo sapiens, UniProt P04062)
Construct: endogenous in cells; host or cells: HeLa cells
Sequence (P04062 40-536): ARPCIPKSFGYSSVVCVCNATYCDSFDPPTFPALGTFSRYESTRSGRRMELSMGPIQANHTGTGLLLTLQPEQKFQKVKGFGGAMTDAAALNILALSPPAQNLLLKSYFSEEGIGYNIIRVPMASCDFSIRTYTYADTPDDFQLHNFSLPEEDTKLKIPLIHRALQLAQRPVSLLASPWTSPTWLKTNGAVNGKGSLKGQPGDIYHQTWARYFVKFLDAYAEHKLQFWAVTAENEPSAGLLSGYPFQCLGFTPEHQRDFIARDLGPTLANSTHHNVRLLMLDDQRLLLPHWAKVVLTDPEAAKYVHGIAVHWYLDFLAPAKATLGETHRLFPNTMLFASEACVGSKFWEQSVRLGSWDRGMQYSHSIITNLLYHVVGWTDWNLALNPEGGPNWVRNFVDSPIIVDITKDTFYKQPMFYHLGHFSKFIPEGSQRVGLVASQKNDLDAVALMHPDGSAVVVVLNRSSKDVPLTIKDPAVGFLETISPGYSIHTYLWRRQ
ASSAY_DETAILS: activation of GCase in a live cell PFB assay in HELA cells
Assay type: cell-based
EXPERIMENTAL_CONTEXT: EC50 given as range classes
READOUT: EC50

Some solved cases for reference:
MOLECULE | READOUT | READOUT_VALUE
Cc1nc(N2CCC3(C2)CN(c2ncc4c(C)nn(CC(F)(F)F)c4n2)C3)cc(C(F)(F)F)n1 | EC50 | 10 to 50 µM
Cc1ncc(N2CC3(CCN(c4cnc5c(C)nn(CC(F)F)c5n4)C3)C2)c(C(F)(F)F)n1 | EC50 | > 100 µM
Cc1cc(C(F)(F)F)ncc1N1CC2(CCN(c3cnc4cnn(CC(F)F)c4n3)CC2)CC1=O | EC50 | < 10 µM
FC(F)Cn1ncc2ncc(N3CCC4(CN(c5cccc(OC(F)(F)F)n5)C4)C3)nc21 | EC50 | 10 to 50 µM
Cc1nc(N2CC3(CCN(c4cc5c(cn4)c(C)nn5CC(F)F)CC3)CC2=O)cc(C(F)(F)F)n1 | EC50 | 10 to 50 µM
COc1nn(CC(F)F)c2nc(N3CCC4(CCN(c5ccc(C(F)(F)F)nc5)C4)CC3)cnc12 | EC50 | < 10 µM
Cc1nc(N2CCC3(CCN(c4cnc5c(C)nn(CC(F)(F)F)c5n4)C3)C2)cc(C(F)(F)F)n1 (stereo not shown) | EC50 | > 100 µM
O=C1CC2(CCN(c3cnc4cnn(CC(F)F)c4n3)CC2)CN1c1ccc(C(F)(F)F)nc1OC(F)F | EC50 | < 10 µM

stdin: Dear colleague, I am looking for the recorded EC50 of the following molecule: O=C1CC2(CN1c1ccc(C(F)(F)F)nc1)C1CCC2CN(c2cnc3cnn(CC(F)F)c3n2)C1 (stereo not shown)
stdout: 10 to 50 µM

stdin: Entry to check: O=C1CCC2(CCN(c3cnc4cnn(CC(F)F)c4n3)C2)CN1c1ccc(C(F)(F)F)cn1 (stereo not shown)
stdout: < 10 µM

----------
The following compounds are listed with their measured pEC50 values.
MEASUREMENT_TARGET: GCase (Homo sapiens)
Construct: endogenous in cells; host or cells: HeLa cells
Sequence (P04062 40-536): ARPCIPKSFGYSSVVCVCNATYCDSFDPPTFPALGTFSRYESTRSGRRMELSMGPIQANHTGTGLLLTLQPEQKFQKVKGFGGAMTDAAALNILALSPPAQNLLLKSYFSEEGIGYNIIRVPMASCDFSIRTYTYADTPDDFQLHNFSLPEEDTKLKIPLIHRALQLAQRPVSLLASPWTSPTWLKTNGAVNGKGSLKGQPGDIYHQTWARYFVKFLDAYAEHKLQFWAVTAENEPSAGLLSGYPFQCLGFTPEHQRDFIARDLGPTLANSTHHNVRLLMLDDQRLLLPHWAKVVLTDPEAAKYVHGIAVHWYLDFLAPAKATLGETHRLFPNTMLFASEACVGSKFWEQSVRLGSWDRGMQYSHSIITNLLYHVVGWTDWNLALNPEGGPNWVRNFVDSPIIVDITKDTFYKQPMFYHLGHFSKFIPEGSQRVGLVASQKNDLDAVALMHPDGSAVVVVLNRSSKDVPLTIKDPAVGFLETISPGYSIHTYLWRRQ
ASSAY_DETAILS: activation of GCase in a live cell PFB assay in HELA cells
Format: cell-based
EXPERIMENTAL_CONTEXT: activation of GCase, EC50 ranges
pEC50: −log10 of the molar value.

COMPOUND | pEC50
CCc1nn(CC(F)F)c2nc(N3CCC4(CN(c5ccnc(C(F)(F)F)c5)C4)C3)ncc12 | > 5.00

stdin: Bench note: what pEC50 did `FC(F)Cn1ncc2ncc(N3CC4(CCN(c5cncc(C(F)(F)F)n5)CC4)C3)nc21` show?
stdout: > 5.00

stdin: Next entry: `FC(F)Cn1ncc2ncc(N3CC4(CCN(c5cncc(C(F)(F)F)c5)CC4)C3)nc21`
stdout: > 5.00

stdin: One more compound: FC(F)Cn1ncc2ncc(N3CCCC4(CC(Oc5cnccc5C(F)(F)F)C4)C3)nc21 (centres unmarked)
stdout: > 5.00

stdin: # iterate: `Cc1ncc(N2CC3(CCN(c4cnc5cnn(CC(F)F)c5n4)C3)C2)cn1`
stdout: < 4.00

stdin: Try the compound `O=C1CC2(CCN(c3cnc4cnn(CC(F)F)c4n3)CC2)CN1c1cncc(Cl)c1`
stdout: > 5.00

stdin: What about O=C1CC2(CCN(c3cnc4cnn(CC(F)F)c4n3)C2)CN1c1ccc(C(F)(F)F)cn1 (centres unmarked) ?
stdout: 4.00 to 4.30

stdin: Next: `FC(F)Cn1ncc2ncc(N3CC4(CCCN(c5cc(C(F)(F)F)ccn5)C4)C3)nc21`
stdout: 4.30 to 5.00

stdin: And for `CCOc1ncc(N2CCC3(CCN(c4cnc5cnn(CC(F)F)c5n4)CC3)C2)cn1` ?
stdout: > 5.00

stdin: Also check `Fc1ccc(N2CCC3(CCN(c4cnc5cnn(CC(F)F)c5n4)CC3)C2)c(F)c1`
stdout: 4.30 to 5.00

stdin: And what about the compound `Cc1nc(N2CC3(CCN(c4ncc5cnn(C(F)F)c5n4)C3)C2)cc(C(F)(F)F)n1` ?
stdout: > 5.00

stdin: Continue with `Cc1ncc(N2CC3(CCN(c4cnc5cnn([C@@H]6CCOC6)c5n4)C3)C2)c(C(F)(F)F)n1`
stdout: < 4.00

stdin: // same read-out, input: `CCc1nn(CC(F)F)c2nc(N3CCC4(CN(c5cc(C(F)(F)F)nc(C)n5)C4)C3)cnc12`
stdout: 4.30 to 5.00

stdin: Next entry: `Cc1cc(N2CC3(CCN(c4cnc5cnn(CC(C)(F)F)c5n4)C3)C2)nc(C(F)(F)F)n1`
stdout: < 4.00
